Tested on: LOX IMVI melanoma
Would you mind answering with one of these outcomes? active, inactive

Ask: Could you please tell me the result logged for CC/C=C\C[C@H](O)C/C=C1/C(=O)C=C[C@@H]1C/C=C\CCCC(=O)N(C)C in this assay?
Reply: active

Ask: Could you please tell me the result logged for CCN1C(=S)N(CC)C2C1NC(=S)N2/N=C/C=C/c1ccccc1 (stereo not given) in this assay?
Reply: inactive

Ask: Could you please tell me the result logged for CC(C)c1ccc(C(=O)Nc2sc3c(c2C#N)CCC(=O)C3)cc1 in this assay?
Reply: active

Ask: Could you please tell me the result logged for O=[N+]([O-])c1ccc(N/N=C/c2c(O)ccc3ccccc23)nc1 in this assay?
Reply: inactive

Ask: Could you please tell me the result logged for Clc1ccc2[nH]cc(-c3nc(-c4c[nH]c5ncccc45)cs3)c2c1 in this assay?
Reply: inactive

Ask: Could you please tell me the result logged for CC1(C)OC(=O)C=C([O-])O1.CC1(C)OC(=O)C=C([O-])O1.O=S(=O)([O-])c1ccc([O-])c2ncccc12.O=S(=O)([O-])c1ccc([O-])c2ncccc12.[Ti+4] in this assay?
Reply: inactive

Ask: Could you please tell me the result logged for NNc1cccc(/C=C/c2ccccc2)cc1=O in this assay?
Reply: inactive

Ask: Could you please tell me the result logged for OCC1OC(n2ccc3c(NO)ncnc32)C(O)C1O (stereo not given) in this assay?
Reply: active

Ask: Could you please tell me the result logged for Cn1ncc2c(N)nc(N3CCCCC3)nc21 in this assay?
Reply: inactive

Ask: Could you please tell me the result logged for O=C(NCCCNc1cc(-c2cn(-c3ccccc3)nc2-c2cccc(O)c2)ccn1)c1ccccc1 in this assay?
Reply: inactive
